These entries and their values trace back to paper PMC10610214.

System: H2O2-induced PC12 cells
Test: Neuroprotection against H2O2-induced PC12 cell injury (MTT)
Assay type: cell-based
Conditions: compound 30 μM, H2O2 250 μM, mean ± SEM
Measurement name: H2O2-Induced PC12 Cell Viability (% of Control)

(Q) Note down H2O2-Induced PC12 Cell Viability (% of Control) recorded for O=C1c2ccccc2-n2c1nc1ccc(NS(=O)(=O)c3ccc(Br)cc3)cc1c2=O [8e]
(A) 55.86 ± 0.9 % of Control

(Q) Please give measured H2O2-Induced PC12 Cell Viability (% of Control) of the following entry: O=C1c2cc(NS(=O)(=O)c3ccccc3F)ccc2-n2c1nc1ccccc1c2=O [4h]
(A) 71.31 ± 1.9 % of Control

(Q) Give the value of H2O2-Induced PC12 Cell Viability (% of Control) reported for the following: O=C1c2ccccc2-n2c1nc1ccc(NS(=O)(=O)c3ccccc3OC(F)(F)F)cc1c2=O [8n]
(A) 49.96 ± 0.8 % of Control

(Q) For the compound O=C1c2ccccc2-n2c1nc1ccc(NS(=O)(=O)c3ccc(F)cc3)cc1c2=O [8f] , report H2O2-Induced PC12 Cell Viability (% of Control).
(A) 42.25 ± 1.7 % of Control

(Q) Supply reported H2O2-Induced PC12 Cell Viability (% of Control) belonging to this compound: COc1ccc(S(=O)(=O)Nc2ccc3c(c2)C(=O)c2nc4ccccc4c(=O)n2-3)c(OC)c1 [4l]
(A) 39.84 ± 2.8 % of Control

(Q) Answer with the recorded H2O2-Induced PC12 Cell Viability (% of Control) of Cc1ccc(S(=O)(=O)Nc2ccc3c(c2)C(=O)c2nc4ccccc4c(=O)n2-3)cc1 [4b] only.
(A) 59.09 ± 2.5 % of Control

(Q) Indicate its recorded H2O2-Induced PC12 Cell Viability (% of Control); the compound in question is O=C1c2ccccc2-n2c1nc1ccc(NS(=O)(=O)c3ccccc3)cc1c2=O [8a]
(A) 50.98 ± 1.8 % of Control

(Q) Recall and state the measured H2O2-Induced PC12 Cell Viability (% of Control) for O=C1c2cc(NS(=O)(=O)c3ccccc3)ccc2-n2c1nc1ccccc1c2=O [4a] .
(A) 48.5 ± 1.5 % of Control

(Q) Could you please provide reported H2O2-Induced PC12 Cell Viability (% of Control) for O=C1c2cc(NS(=O)(=O)c3cccc(F)c3)ccc2-n2c1nc1ccccc1c2=O [4g] ? Thanks!
(A) 68.83 ± 2.7 % of Control

(Q) Check the records and state H2O2-Induced PC12 Cell Viability (% of Control) for COc1ccc(S(=O)(=O)Nc2ccc3c(c2)C(=O)c2nc4ccccc4c(=O)n2-3)cc1OC [4k]
(A) 46.23 ± 0.6 % of Control

(Q) Output H2O2-Induced PC12 Cell Viability (% of Control) of O=C1c2cc(NS(=O)(=O)c3ccc(OC(F)(F)F)cc3)ccc2-n2c1nc1ccccc1c2=O [4m]
(A) 44.98 ± 2.5 % of Control

(Q) Supply reported H2O2-Induced PC12 Cell Viability (% of Control) belonging to this compound: O=C1c2ccccc2-n2c1nc1ccc(NS(=O)(=O)c3ccc(OC(F)(F)F)cc3)cc1c2=O [8m]
(A) 53.92 ± 3.9 % of Control

(Q) Read off the recorded H2O2-Induced PC12 Cell Viability (% of Control) for CC(C)(C)c1ccc(S(=O)(=O)Nc2ccc3c(c2)C(=O)c2nc4ccccc4c(=O)n2-3)cc1 [4c]
(A) 56.4 ± 1.2 % of Control

(Q) Answer with the recorded H2O2-Induced PC12 Cell Viability (% of Control) of O=C1c2ccccc2-n2c1nc1ccc(NS(=O)(=O)c3c(Cl)cccc3Cl)cc1c2=O [8p] only.
(A) 50.5 ± 0.5 % of Control

(Q) Supply recorded H2O2-Induced PC12 Cell Viability (% of Control) for COc1ccc(S(=O)(=O)Nc2ccc3c(c2)C(=O)c2nc4ccccc4c(=O)n2-3)cc1 [4j] here.
(A) 41.69 ± 1.7 % of Control

(Q) Give the measured H2O2-Induced PC12 Cell Viability (% of Control) for CC(=O)Nc1ccc(S(=O)(=O)Nc2ccc3c(c2)C(=O)c2nc4ccccc4c(=O)n2-3)cc1 [4i]
(A) 40.93 ± 2.9 % of Control

(Q) Assign H2O2-Induced PC12 Cell Viability (% of Control) to the following record: O=C1c2cc(NS(=O)(=O)c3c(Cl)cccc3Cl)ccc2-n2c1nc1ccccc1c2=O [4p]
(A) 65.6 ± 2.2 % of Control

(Q) State its H2O2-Induced PC12 Cell Viability (% of Control) for this compound: CC(C)(C)c1ccc(S(=O)(=O)Nc2ccc3nc4n(c(=O)c3c2)-c2ccccc2C4=O)cc1 [8c]
(A) 49.64 ± 4.1 % of Control

(Q) Hello, please tell me recorded H2O2-Induced PC12 Cell Viability (% of Control) for this one: COc1ccc(S(=O)(=O)Nc2ccc3nc4n(c(=O)c3c2)-c2ccccc2C4=O)cc1OC [8k]
(A) 52.28 ± 2.3 % of Control

(Q) Input CC(C)c1cc(C(C)C)c(S(=O)(=O)Nc2ccc3nc4n(c(=O)c3c2)-c2ccccc2C4=O)c(C(C)C)c1 [8d] , output reported H2O2-Induced PC12 Cell Viability (% of Control).
(A) 53.26 ± 1.4 % of Control

(Q) Tell me its H2O2-Induced PC12 Cell Viability (% of Control) given O=C1c2ccccc2-n2c1nc1ccc(NS(=O)(=O)c3cccc(F)c3)cc1c2=O [8g] as the entry.
(A) 52.28 ± 2.3 % of Control

(Q) Provide only the value of recorded H2O2-Induced PC12 Cell Viability (% of Control) for O=c1c(O)c(-c2ccc(O)c(O)c2)oc2cc(O)cc(O)c12 [Quercetin, reference compound]
(A) 63.27 ± 2.1 % of Control

(Q) Look up and report measured H2O2-Induced PC12 Cell Viability (% of Control) for this entry: Cc1ccc(S(=O)(=O)Nc2ccc3nc4n(c(=O)c3c2)-c2ccccc2C4=O)cc1 [8b]
(A) 51.37 ± 2.1 % of Control

(Q) Tell us which H2O2-Induced PC12 Cell Viability (% of Control) value is on record for O=C1c2cc(NS(=O)(=O)c3ccc(F)cc3)ccc2-n2c1nc1ccccc1c2=O [4f]
(A) 55.26 ± 0.5 % of Control

(Q) Please give measured H2O2-Induced PC12 Cell Viability (% of Control) of the following entry: CC(=O)Nc1ccc(S(=O)(=O)Nc2ccc3nc4n(c(=O)c3c2)-c2ccccc2C4=O)cc1 [8i]
(A) 59.63 ± 2.5 % of Control

(Q) Recall and state the measured H2O2-Induced PC12 Cell Viability (% of Control) for O=C1c2cc(NS(=O)(=O)c3ccccc3OC(F)(F)F)ccc2-n2c1nc1ccccc1c2=O [4n] .
(A) 52.84 ± 1.8 % of Control

(Q) For the compound O=C1c2ccccc2-n2c1nc1ccc(NS(=O)(=O)c3ccccc3C(F)(F)F)cc1c2=O [8o] , report H2O2-Induced PC12 Cell Viability (% of Control).
(A) 54.6 ± 3.8 % of Control

(Q) Name the recorded H2O2-Induced PC12 Cell Viability (% of Control) of the item COc1ccc(S(=O)(=O)Nc2ccc3nc4n(c(=O)c3c2)-c2ccccc2C4=O)c(OC)c1 [8l] in your answer.
(A) 38.1 ± 2.7 % of Control

(Q) Determine from records and report H2O2-Induced PC12 Cell Viability (% of Control) for CC(C)c1cc(C(C)C)c(S(=O)(=O)Nc2ccc3c(c2)C(=O)c2nc4ccccc4c(=O)n2-3)c(C(C)C)c1 [4d]
(A) 50.1 ± 0.8 % of Control

(Q) Using known records, supply H2O2-Induced PC12 Cell Viability (% of Control) for O=C1c2cc(NS(=O)(=O)c3ccccc3C(F)(F)F)ccc2-n2c1nc1ccccc1c2=O [4o]
(A) 50.5 ± 0.5 % of Control

(Q) Look up and report measured H2O2-Induced PC12 Cell Viability (% of Control) for this entry: COc1ccc(S(=O)(=O)Nc2ccc3nc4n(c(=O)c3c2)-c2ccccc2C4=O)cc1 [8j]
(A) 47.36 ± 6.1 % of Control

(Q) Return H2O2-Induced PC12 Cell Viability (% of Control) (reported value) for this compound: O=C1c2ccccc2-n2c1nc1ccc(NS(=O)(=O)c3ccccc3F)cc1c2=O [8h]
(A) 46.73 ± 3.5 % of Control

(Q) Answer with the recorded H2O2-Induced PC12 Cell Viability (% of Control) for the compound listed here: O=C1c2cc(NS(=O)(=O)c3ccc(Br)cc3)ccc2-n2c1nc1ccccc1c2=O [4e]
(A) 57.51 ± 0.8 % of Control

---

Assay: LD50 determination in mice (Bliss method)
Format: in vivo, C57BL mice
Details: male, C57BL, mouse, in vivo, po, intragastric administration 7 days, Bliss method, read-out: LD50 (95% confidence limit)
Measurement name: LD50 at 7 days (mg/kg)
Number only, in mg/kg; omit the unit.

(Q) Please look at this compound and report its LD50 at 7 days: O=C1c2cc(NS(=O)(=O)c3ccccc3F)ccc2-n2c1nc1ccccc1c2=O
(A) 84.8
